For each of the compounds below, state its logD at 2 h.
- ASSAY OVERVIEW: Octanol-phosphate buffer distribution coefficient, log D of the compound at pH 7.4 after 2 hrs by shake flask method using LC-MS analysis
- Format: physicochemical
Lab note: record just the number, no unit beside it.

Problem: logD at 2 h for "COc1ccc(Cn2cc(CO[C@H]3O[C@H](CO)[C@@H](O)[C@H](O)[C@@H]3O)nn2)cc1" ?
Solution: -0.4

Problem: And then "OC[C@H]1O[C@H](OCc2cn(C34CC5CC(CC(C5)C3)C4)nn2)[C@@H](O)[C@@H](O)[C@@H]1O" , what is it?
Solution: 0.07

Problem: And then "OC[C@H]1O[C@H](OCc2cn(-c3cccc(F)c3)nn2)[C@@H](O)[C@@H](O)[C@@H]1O" , what is it?
Solution: 0.18

Problem: And then "O=[N+]([O-])c1ccc(-n2cc(CO[C@H]3O[C@H](CO)[C@@H](O)[C@H](O)[C@@H]3O)nn2)cc1" , what is it?
Solution: -0.16

Problem: And then "Cc1ccc(-c2cn(C[C@H]3O[C@H](CO)[C@@H](O)[C@H](O)[C@@H]3O)nn2)cc1" , what is it?
Solution: 0.23

Problem: And then "Cc1ccc(-c2cn([C@H]3O[C@H](CO)[C@@H](O)[C@H](O)[C@@H]3O)nn2)cc1" , what is it?
Solution: 0.91

Problem: And then "OC[C@H]1O[C@H](n2cc(COc3ccccc3)nn2)[C@@H](O)[C@@H](O)[C@@H]1O" , what is it?
Solution: -0.18

Problem: And then "OC[C@H]1O[C@H](Cn2cc(-c3cccc(Cl)c3)nn2)[C@@H](O)[C@@H](O)[C@@H]1O" , what is it?
Solution: 0.68

Problem: And then "O=[N+]([O-])c1ccc(-n2cc(CCO[C@H]3O[C@H](CO)[C@@H](O)[C@H](O)[C@@H]3O)nn2)cc1" , what is it?
Solution: -0.3

Problem: And then "OC[C@H]1O[C@H](n2cc(-c3ccc(C(F)(F)F)cc3)nn2)[C@@H](O)[C@@H](O)[C@@H]1O" , what is it?
Solution: 1.45

Problem: And then "OC[C@H]1O[C@H](OCc2cn(-c3ccncc3)nn2)[C@@H](O)[C@@H](O)[C@@H]1O" , what is it?
Solution: 0.24

Problem: And then "OC[C@H]1O[C@H](n2cc(-c3cccnc3)nn2)[C@@H](O)[C@@H](O)[C@@H]1O" , what is it?
Solution: -1.04

Problem: And then "OC[C@H]1O[C@H](n2cc(-c3ccccc3)nn2)[C@@H](O)[C@@H](O)[C@@H]1O" , what is it?
Solution: 0.21

Problem: And then "COc1cccc(Cn2cc(CO[C@H]3O[C@H](CO)[C@@H](O)[C@H](O)[C@@H]3O)nn2)c1" , what is it?
Solution: -0.38

Problem: And then "OC[C@H]1O[C@H](Cn2cc(-c3ccc(C(F)(F)F)cc3)nn2)[C@@H](O)[C@@H](O)[C@@H]1O" , what is it?
Solution: 1.07

Problem: And then "CCCCCCCO[C@H]1O[C@H](CO)[C@@H](O)[C@H](O)[C@@H]1O" , what is it?
Solution: 1.65
